# System: K4 kissing-loop RNA reporter;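 note: bound reporter read as fluorescence of individual clusters on recovered sequencing chips by microscopy, with normalized cluster intensities fitted with a binding model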
# test-description: apparent KD of K4 kissing-loop reporter; higher = weaker reporter binding
# experimental-conditions: Eterna round: R107; input ligand: arginine 13.2 mM

{"residue-codes": "AUAAAUUUGUAGUGAUGUUGCAAGUUAGUCAAGGAUAUCAGGAAACUGAGAAGGUGAUAUCUCCUUUACUUGCAACUAGGAGGAG [KL-SSFMN-A11]", "apparent KD of K4 kissing-loop reporter": "87.3 nM"}
{"residue-codes": "CGACUAGUCUUGCAACCCUAGUCGAUAGACUAGGAUAUCAGGAAACUGAGAAGGAGUCUACUUGCAGUGAUGUUGCAAGAAUAAU [[F]''-[K]'-[F]'-[F1]-[F2]-[K1]-[K2]_Design6]", "apparent KD of K4 kissing-loop reporter": "176 nM"}
{"residue-codes": "UUUAUUAAGACGGCCGCCACUGAUUCAUAGUGAUGUUAUGAUAUAAUUUUAGUGAUAUGCAUUAGCAGGACCGGGUCAAUUAUUA [JR_ExcTryptoB_Sub017]", "apparent KD of K4 kissing-loop reporter": "146 nM"}
{"residue-codes": "AGAGAUAUAUGAGGAUAUGGGAUAGUUAAUGAGUUAGUUUUAGUGUUGUUUGGUUAGUGAUGUUAUUUAGAAGGCGUGAGUGAUG [rxxvgmullin]", "apparent KD of K4 kissing-loop reporter": "75.8 nM"}
{"residue-codes": "AAUUCUCUUUUUGAUACCAGCGAAUCUGAGUGAUGUUCUAAGCCAUACAAUUGAGUAAAUCGCCCUUGGCAGCAAUUCGUGGGUG [theeternabot_exclusion_KL_Theo_B_20]", "apparent KD of K4 kissing-loop reporter": "681 nM"}
{"residue-codes": "GCCGUACGCAUGGAUACCAGUCUUAGAGUGAUGUUCUAAACGAUUGCGCCUGGAUCAAUGGACCCUUGGCAGCCAUGCGUACGGC", "apparent KD of K4 kissing-loop reporter": "119 nM"}
{"residue-codes": "AUCUUGUUUGGAGGAUAUUCUUUAUUCGACAUAACCUUCUAUAAGGUGCAGUGAUGUUGCAAUAUAGGAGAAGGUCGAGUGAGAU [Exclusion FMN B GF 17]", "apparent KD of K4 kissing-loop reporter": "174 nM"}
{"residue-codes": "GUUACGCAUGGAAGGAGCGCAGGCUCAACAAGUAGCUCAGUGAUGUUGAGCAUAUUAAUUCUGCAGGUAGGUCGCCAUGUGUAAC [Ex Arginine B K4 26]", "apparent KD of K4 kissing-loop reporter": "471 nM"}
{"residue-codes": "UGUCAUUGGUCGGCCGCCACUUCGUGUGGAGUGAUGUUUUGUAGAUUGUGUUGAAAGGUAUGGUGAAGGACCGGGACCGAUGACU [FiskerMod 21 - Jieux - Same State - Tryptophan B]", "apparent KD of K4 kissing-loop reporter": "368 nM"}
{"residue-codes": "UCCUGCAAUCCGCCACGAAAGUGGAUGGAUACCAGAGUCGAAAGACUCCCUUGGCAGCCAGUGAUGUUGGAAGCAGGUAAAUAAA", "apparent KD of K4 kissing-loop reporter": "645 nM"}
{"residue-codes": "CCAACGUGAAAAGGAUAUCGCGAUGUGCACGACUAGUGAUGUUAGGAGAGGCUCGUUGAAUUGUACCGAGAAGGUUUUGAGUGGG [theeternabot_sameState_KL_FMN_B_16]", "apparent KD of K4 kissing-loop reporter": "160 nM"}
{"residue-codes": "GGACGACAGGCGGCCGCCACUCACAGCAGCCAGCGAGUGAUGUUCGUAGCGGAGUGAUGUUCCGAGAGGACCGGGUCUGCAGUCC [Same State Tryptophan B GF 17]", "apparent KD of K4 kissing-loop reporter": "178 nM"}
{"residue-codes": "GGGAUGUAGGGAAGGAGCGCUUUGCGAAUAUUAAUGAGUGAUGUUCGUAGAUAUUUGUAAUGGCAGGUAGGUCGCCCUAUAUCCC [Skye_SS_AB]", "apparent KD of K4 kissing-loop reporter": "131 nM"}
{"residue-codes": "UUUAAAUAUAGUGAUGUUAUAUAACAAUGACGAGGACCGGUACGGCCGCCACUCGAGAGAGAUAAUGGUCAUACAAAUGUAUGUU [AstrosSSTryA#10]", "apparent KD of K4 kissing-loop reporter": "677 nM"}
{"residue-codes": "UGUACCGAGUCAGGAUAUGGCGUCGAAAGACGAAACCAGUGAUGUUGGAAUCGAUCGAAAGAUCGUCCAGAAGGGACUUGGUACU [FmnBS 21 #SwitchBubble #StaticStem #DoubleMagnetSystem]", "apparent KD of K4 kissing-loop reporter": "382 nM"}
{"residue-codes": "AGUGUGCAAAAGCACACUCAGAACAAGGACAAGGAUAUCUACUAAUAGAGAAGGUGUCCUUUCCUUAGUGAUGUUAAGGAUCUGA [Omei KL FMN A SS D v4]", "apparent KD of K4 kissing-loop reporter": "424 nM"}
{"residue-codes": "AGACUACCACACUGUCAAUAGACAGUGUACUAGGAUAUGCUGAUAAGCAGAAGGAGUGAUGUUCCAAGGUAGUCAAUAAAAUAAU [FmnAX 13 U28+A66]", "apparent KD of K4 kissing-loop reporter": "213 nM"}
{"residue-codes": "UGUGUUGUGUAGUGUUAUGUUUUGAGGGAUACCAGAGUGUUUUUAUUCCCUUGGCAGCUUGAGUGAUGUUUGAUGUUGUUGUUGU [jlljmullin]", "apparent KD of K4 kissing-loop reporter": "178 nM"}
{"residue-codes": "UUACUACCCAGUGAUGUUGGGUAGCGGCCACGAGGACCGGUACGGCCGCCACUCGAGGUUCGGGAGUGAUGUUCCUACUAUUUGG [Same state Tryptophan A GF 6]", "apparent KD of K4 kissing-loop reporter": "341 nM"}
{"residue-codes": "GGAGGUUGGUGCGAUACCAGACCUGCAGUGAUGUUGCGCCAAAGUGAGUGAUGUUCACCGGUCCCUUGGCAGCGCGUCCCUUUAG [Same State Theophylline B GF 15]", "apparent KD of K4 kissing-loop reporter": "729 nM"}
{"residue-codes": "GACGGGCAGUGAUGUUGCCGGUCUCUUGGACGAGGACCGGUACGGCCGCCACUCGAUCUGAUGCAAGAAUCGCAUCUUUUAAUAA [Biququan]", "apparent KD of K4 kissing-loop reporter": "103 nM"}
{"residue-codes": "AAGCCGGUUGCGGCCGCCACUUUUGCGGACCCGGUGCAGUGAUGUUGCGCAUCGCGGGUUGCUUAAAGGACCGGGCACCUCUAAC [theeternabot_sameState_KL_Trp_B_7]", "apparent KD of K4 kissing-loop reporter": "359 nM"}

Value source: the supplement of paper PMC9170038
